Experiment: chemical genetic growth profiling, strain panel (AID 1159580);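 note: tested at 20 µM; growth read once vehicle control cultures reached saturation at 30 °C; 1 = growth at the plate median or of vehicle wells; lower values mean less growth of the strain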
Settings: S. cerevisiae deletion strains, growth OD, locus YKL067W, strain YNK1
Out of some 5,500 compounds screened, about 2,000 (36%) were called active. Another 18% or so got no clear call; they are omitted. Cut-off read from the data, not from the text of the source: active = normalized growth mostly below about 0.91 (no sharp cut-off); inconclusive = no clear call, values can overlap the other calls; inactive = mostly above about 0.92. The list shows a part of the results.
The reply should name one outcome from active, inactive

Would you please look over these solved cases?
Cc1cc(Oc2ccc(C(F)(F)F)cc2NS(C)(=O)=O)cc(C)c1Cl	inactive
CC(C)(C)C(=O)NC(=S)N/N=C\c1cc(Cl)cc(Cl)c1O	active

Name the outcome recorded for O=C1Nc2ccccc2/C1=C\c1c(Cl)cccc1Cl in the assay. inactive

Then this compound: Cc1ccc(C)n1-c1ccc(/C=C2/C(=O)Nc3ccccc32)cc1 inactive

====

Assay: chemical genetic growth profiling, strain panel (AID 1159580)
Details: S. cerevisiae deletion strains, growth OD, locus YCR088W, strain abp1
The whole screen tested about 5,500 compounds, of which about 2,000 (36%) were called active. Not shown: some 18% with an inconclusive outcome. No stated cut-off is given here; in the data, active means normalized growth mostly below about 0.91 (no sharp cut-off); inconclusive means no clear call, values can overlap the other calls; inactive means mostly above about 0.92. Some of the results follow.
I would appreciate it if you answered using one of these outcomes: T (active), F (inactive)

COc1cccc2c(C)cc(=O)[nH]c12	F
O=C(O)C1=C[C@@H](O)[C@@H](O)[C@H](O)C1	F
CC(=O)OCC1=C(C(=O)O)N2C(=O)[C@@H](NC(=O)Cc3cccs3)[C@H]2SC1	F
CC1CC[C@]2(NC1)O[C@H]1CC3C4CC[C@H]5C[C@@H](O)CC[C@]5(C)C4CC[C@]3(C)[C@H]1[C@@H]2C (some centres undefined)	T
COC(=O)[C@@]1(C)CCC[C@]2(C)c3ccc(O)c(C(C)C)c3CCC12 (some centres undefined)	F

Assay outcome for OC1CC2CCCC(C1)N2Cc1ccccc1 (centres undefined) : what was it? F

Now the same for CC[n+]1c(-c2ccccc2)c2cc(N)ccc2c2ccc(N)cc21 F

Next: CC1CCC2(OC1)OC1CC3C4CC[C@H]5C[C@@H](O)CC[C@]5(C)C4CC(=O)[C@]3(C)C1C2C (some centres undefined) F

Another: CC(CC(C(N)=O)(c1ccccc1)c1ccccc1)N(C)C (centres undefined) F

====

Assay: chemical genetic growth profiling, strain panel (AID 1159580)
Settings: S. cerevisiae deletion strains, growth OD, locus YJR075W, strain HOC1, active compounds read low
Out of some 5,500 compounds screened, about 2,000 (36%) were called active. Not shown: some 18% with an inconclusive outcome. This is one part of the list.
quantity_measured: normalized growth
Simply state the number, no unit and no words.

CC(=O)OC(C)C[N+](C)(C)C (centres undefined)	1.02
COC(=O)[C@@H]1[C@H]2C[C@H]3c4[nH]c5ccccc5c4CCN3C[C@@H]2CC[C@@H]1O	0.98
O=c1c(O)c(-c2cc(O)c(O)c(O)c2)oc2cc(O)cc(O)c12	0.993
O=C1NN=C2C3CC4CC12CC1(C3)C(=O)NN=C41	1.02

What value of measured normalized growth is listed for COc1cc(O)c2c(=O)c(O)c(-c3ccc(O)c(O)c3)oc2c1 ? 0.987

Then Cc1ccc(S(=O)(=O)N[C@@H](CCCCN)C(=O)CCl)cc1 ? 0.995

Try this compound too: O=[N+]([O-])c1ccc(OCCCOc2ccc([N+](=O)[O-])cc2)cc1 0.971

Param item: S=C=Nc1cccc(C2(N3CCCCC3)CCCCC2)c1 0.984

Follow-up entry: CCN1C[C@]2(C)CC[C@H](OC)[C@]34C2[C@H](O)[C@]2(OCO[C@@]25C[C@H](OC)[C@H]2C[C@]3(O)C5[C@H]2O)C14 1

Now the same for CCOCN(C(=O)CCl)c1c(C)cccc1CC 0.993

Would you kindly repeat that for COc1ccccc1Oc1ccc(C(F)(F)F)cc1NC(=O)NC(=O)c1ccccc1F ? 1.02

Another compound to look at: NC(N)=NC(=O)c1nc(Cl)c(N2CCCCCC2)nc1N 0.988

Repeat with COc1ccc(CCNc2ccc(C(F)(F)F)cc2N)cc1OC 1.02

// repeat for COc1ccccc1/C=C\C(=O)O and report 1.02

Repeat for the following compound: CCC(c1ccc(O)cc1)C(CC)c1ccc(O)cc1 (centres undefined) 1.01

Queued: O=S(=O)(Oc1cc(Cl)cc(Cl)c1)c1cccc(S(=O)(=O)Oc2cc(Cl)cc(Cl)c2)c1 0.988

====

Test: chemical genetic growth profiling, strain panel (AID 1159580)
Details: S. cerevisiae deletion strains, growth OD, locus YLR258W, strain gsy2
The campaign covered roughly 5,500 compounds. About 2,000 (36%) were called active. About 18% were inconclusive and are not listed. Rule as the data show it: active = normalized growth mostly below about 0.91 (no sharp cut-off); inconclusive = no clear call, values can overlap the other calls; inactive = mostly above about 0.92. This is one part of the list.
Outcome field: choose from YES for active, NO for inactive

CC(=O)[C@@]1(O)CCC2C3C[C@H](C)C4=CC(=O)C=CC4(C)[C@@]3(F)[C@@H](O)C[C@@]21C (stereo not given in full)	NO

Hey, what did the test say about CN1C[C@H](C(=O)N[C@]2(C)O[C@@]3(O)[C@@H]4CCCN4C(=O)[C@H](Cc4ccccc4)N3C2=O)C[C@@H]2c3cccc4[nH]cc(c34)C[C@H]21 ? NO

// repeat for O=C(OC1Cc2c(O)cc(O)cc2OC1c1cc(=O)c(O)c2c(O)c(O)cc(C3Oc4cc(O)cc(O)c4CC3O)c2c1)c1cc(O)c(O)c(O)c1 (stereo not given) and report NO

Can you handle CNC(=O)Oc1cccc2c1OC(C)(C)O2 next? NO

====

Test: chemical genetic growth profiling, strain panel (AID 1159580);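 note: tested at 20 µM; growth read once vehicle control cultures reached saturation at 30 °C; 1 = growth at the plate median or of vehicle wells; lower values mean less growth of the strain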
Conditions: S. cerevisiae deletion strains, growth OD, locus YDR297W, strain sur2, active compounds read low
Hit rate of the full screen: of about 5,500 compounds, about 2,000 (36%) were called active. Another 18% or so got no clear call; they are omitted. Some of the results follow.
quantity_measured: normalized growth
Output: the number by itself.

Examples from the recorded data:
COc1ccc(-c2oc3cc(O[C@H]4O[C@H](CO)[C@@H](O)[C@H](O)[C@H]4O)c(OC)c(O)c3c(=O)c2OC)cc1O	0.989
CC1(C)C=CC(=O)[C@@]2(C)C1CC(=O)[C@]1(C)C2CC[C@@]2(C)[C@H](c3ccoc3)OC(=O)C3OC321 (stereo not given in full)	0.983
O=c1c(O)c(-c2ccc(O)cc2O)oc2cc(O)cc(O)c12	0.978
C[C@@H]1O[C@@H](OC[C@H]2OC(Oc3c(-c4ccc(O)c(O)c4)oc4cc(O)cc(O)c4c3=O)[C@H](O)[C@@H](O)[C@@H]2O)[C@H](O)[C@H](O)[C@H]1O (stereo not given in full)	1.01

Shift focus to the following entry.
// returns reported normalized growth for input CC1(C)C(=O)C=C[C@@]2(C)C1C[C@@H](O)[C@]1(C)C2CC[C@@]2(C)[C@H](c3ccoc3)OC(=O)[C@H]3O[C@]321 (stereo not given in full) 1

====

Experiment: chemical genetic growth profiling, strain panel (AID 1159580);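 note: tested at 20 µM; growth read once vehicle control cultures reached saturation at 30 °C; 1 = growth at the plate median or of vehicle wells; lower values mean less growth of the strain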
Conditions: S. cerevisiae deletion strains, growth OD, locus YLR039C, strain RIC1
About 2,000 (36%) of roughly 5,500 compounds were called active. Another 18% or so got no clear call; they are omitted. Rule as the data show it: active = normalized growth mostly below about 0.91 (no sharp cut-off); inconclusive = no clear call, values can overlap the other calls; inactive = mostly above about 0.92. This is one part of the list.
In this exercise, the only acceptable responses are label 1 (active), label 0 (inactive)

// below: answered compounds
CC12CCC3c4ccc(OCc5ccccc5)cc4CCC3C1C[C@@H](O)[C@@H]2O (stereo partly specified)	label 1
C[C@]12CCC3c4ccc(O)cc4CCC3C1C[C@@H](O)[C@@H]2O (stereo partly specified)	label 0
CCOC(=O)NC1=C(C2CC2)C(=O)C(NC(=O)OCC)=C(C2CC2)C1=O	label 0
C[C@]12CCC3c4ccc(OS(=O)(=O)O)cc4CCC3C1CC[C@H]2O (stereo partly specified)	label 0

Hello, I am checking results. What call was entered for O=[N+]([O-])c1ccc(Oc2cccc3cccnc23)cc1 ? label 0

Try this compound too: CCCC(C)(COC(N)=O)COC(=O)NC(C)C (stereo unspecified) label 0

Next up: Cc1cc(Br)c(NC(=O)C(Cl)(Cl)Cl)c(Br)c1 label 1

Thanks! And CCc1cccc(CC)c1N(COC)C(=O)CCl ? label 0

Quick one: CCN1C[C@]2(C)CC[C@H](OC)[C@]34C2[C@H](O)[C@]2(OCO[C@@]25C[C@H](OC)[C@H]2C[C@]3(O)C5[C@H]2O)C14 label 0

Please do the same for CCCCOc1cc(C(=O)NCCN(CC)CC)c2ccccc2n1 as well. label 0

Then this compound: CCCCCCC(C)OC(=O)COc1ccc(Cl)cc1Cl (stereo unspecified) label 0

====

Assay: chemical genetic growth profiling, strain panel (AID 1159580);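 note: tested at 20 µM; growth read once vehicle control cultures reached saturation at 30 °C; 1 = growth at the plate median or of vehicle wells; lower values mean less growth of the strain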
Details: S. cerevisiae deletion strains, growth OD, locus YPR141C, strain kar3, active compounds read low
The campaign covered roughly 5,500 compounds. About 2,000 (36%) were called active. About 18% were inconclusive and are not listed. The list shows a part of the results.
Reported normalized growth values for the following molecules.
Field format: numeric only.

What value of normalized growth has been recorded for this entry: NC(=O)NCCCC(N)C(=O)O (stereo not given) 1

# iterate: CC(C)c1c(O)ccc2c1CCC1[C@@](C)(CO)CCC[C@]21C (stereo not given in full) 0.955

Another molecule to check: C[C@]12CCC3c4ccc(O)cc4CCC3C1CC[C@@H]2O (stereo not given in full) 1.03

Repeat for the following molecule: CC(=O)Oc1ccc2c(c1C(C)C)CCC1C(C)(C)CCC[C@]21C (stereo not given in full) 1

And for CO[C@@]1(NC(=O)C(C(=O)O)c2ccc(O)cc2)C(=O)N2C(C(=O)O)=C(CSc3nnnn3C)CO[C@@H]21 (stereo not given in full) ? 1.02

Attribution: PubChem BioAssay AID1159580
